- target-under-test: T1, human CD70, recombinant, N-terminally biotinylated (residues 39-193) (human, UniProt P32970 39-193, N-terminal biotin)
- T1 construct: range 39-193; the same entry is used there; also called biotinylated human CD70; CD70 biotin
- T1 sequence (looked up): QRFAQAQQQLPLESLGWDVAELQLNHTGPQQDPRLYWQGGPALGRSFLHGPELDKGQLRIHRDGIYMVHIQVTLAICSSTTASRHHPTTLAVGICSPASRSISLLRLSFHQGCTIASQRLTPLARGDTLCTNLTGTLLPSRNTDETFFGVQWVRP
- test-description: CD27 blocking ELISA, 3 µM scFv, strep/HRP
measurement-label: strep/HRP

- 46-TC7-VII-E11 (scFv, His-tagged) scFv: QVQLVQSGGGVVQPGRSLRLSCAASGFTFSSYAMHWVRQAPGKGLEWVAVISYDGSNKYYADSVKGRFTISRDNSKNTLYLQMNSLRAEDTAVYYCARDSSGYYYGSDAFDIWGQGTMVTVSSGGSGGSGGSGGSSYELTQPPSVSVALGQTVRITCQGDSLRSYYASWYQQKPGQAPVLVIYGKNNRPSGIPDRFSGSSSGNTASLTITGAQAEDEADYYCNSRDSSGNPWVFGGGTKVTVL: 1.26
- 54-TC7-V-D10 (scFv, His-tagged) scFv: QVQLQQWGAGLLKPSETLSLTCAVYGGSFSGYYWSWIRQPPGKGLEWIGEINHSGSTNYNPSLKSRVTISVDTSKNQFSLKLSSVTAADTAVYYCARGGYRSYWYFDLWGRGTLVTVSSGGSGGSGGSGGSQSALTQPASVSGSPGQSITISCTGTSSDVGGYNSVSWYQHHPGKAPKLMIYDVSDRPSGVSDRFSGSKSGNTASLTISGLQAEDEADYYCSSYAGSNNVVFGGGTKVTVL: 1.17
- 61-TC7-IV-H08 (scFv, His-tagged) scFv: QMQLVQSGGGLVQPGRSLRLSCAASGFTFDDYAMHWVRQAPGKGLEWVAVISYDGSNKYYADSVKGRFTISRDNSKNTLYLQMNSLRAEDTAVYYCARSSYDFWSGYPKDMDVWGKGTTVTVSSGGSGGSGGSGGSSSELTQDPAVSVALGQTVRITCQGDSLRSYYASWYQQKPGQAPVLVIYGKNNRPSGIPDRFSGSSSGNTASLTITGAQAEDEADYYCNSRDSSGNHLVVFGGGTKLTVL: 1.52
